# Target: G1 APOL1 (Homo sapiens, UniProt O14791, I384M/S342G)
# Construct: expressed in transfected cells
# Sequence (O14791 28-398 S342G/I384M): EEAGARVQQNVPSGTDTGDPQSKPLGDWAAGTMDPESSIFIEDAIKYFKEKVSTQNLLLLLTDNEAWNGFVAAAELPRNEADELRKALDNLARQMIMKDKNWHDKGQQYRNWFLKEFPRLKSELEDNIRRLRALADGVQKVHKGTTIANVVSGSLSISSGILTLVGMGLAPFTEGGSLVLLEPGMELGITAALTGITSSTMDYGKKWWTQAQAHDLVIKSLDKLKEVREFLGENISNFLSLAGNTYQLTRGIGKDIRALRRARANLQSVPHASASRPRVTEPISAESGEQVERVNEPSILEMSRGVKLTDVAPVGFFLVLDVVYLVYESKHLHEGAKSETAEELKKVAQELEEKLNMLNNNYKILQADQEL
# Protocol notes: Acute APOL1 Thallium Assay with inducible stable clones of HEK 293 cells
# Format: cell-based
# Test conditions: HEK 293 T-Rex inducible stable clone expressing G1 APOL1; read-out: Thallium Assay (IC50)
Endpoint name: IC50

Compound: O=C1CC(C(=O)N[C@H]2C[C@H](c3c(-c4ccc(F)cc4)[nH]c4c(F)cc(F)cc43)C2)C(=O)N1 (stereo partly shown)
Endpoint name: IC50
Measurement: < 0.25 µM

Compound: CS(=O)(=O)NCC(=O)N[C@H]1C[C@H](c2c(-c3ccc(F)cc3)[nH]c3c(F)cc(F)cc32)C1
Endpoint name: IC50
Measurement: > 1 µM

Compound: O=C(N[C@H]1C[C@H](c2c(-c3ccc(F)cc3)[nH]c3c(F)cc(F)cc32)C1)C(F)F
Endpoint name: IC50
Measurement: < 0.25 µM

Compound: O=C(NC[C@H]1C[C@H](c2c(-c3ccc(F)cc3)[nH]c3c(F)cc(F)cc32)C1)c1ccn[nH]1
Endpoint name: IC50
Measurement: > 1 µM

Compound: O=C(CC(=O)N1CCOCC1)NC[C@H]1C[C@@H](c2c(-c3ccc(F)cc3)[nH]c3c(F)cc(F)cc32)C1
Endpoint name: IC50
Measurement: > 1 µM

Compound: CC1(CO)CCN1S(=O)(=O)NC[C@H]1C[C@H](c2c(-c3ccc(F)cc3)[nH]c3c(F)cc(F)cc32)C1 (mixture of isomers)
Endpoint name: IC50
Measurement: > 1 µM

Compound: O=S(=O)(NCCN1CCC(O)C1)NC[C@H]1C[C@H](c2c(-c3ccc(F)cc3)[nH]c3c(F)cc(F)cc32)C1 (stereo partly shown)
Endpoint name: IC50
Measurement: > 1 µM

----------
# Target: G1 APOL1 (Homo sapiens, UniProt O14791, I384M/S342G)
# Construct: expressed in transfected cells
# Protocol notes: Acute APOL1 Thallium Assay with inducible stable clones of HEK 293 cells
# Type: cell-based
# Test conditions: HEK 293 T-Rex inducible stable clone expressing G1 APOL1; read-out: Thallium Assay (IC50)
pIC50: −log10 of the molar value. Where a name gives a salt, the structure may show the parent alone.
Listed molecules paired with reported pIC50
Endpoint name: pIC50

Molecule: O=C(CCN1CCCC1)N[C@H]1C[C@@H](c2c(-c3ccc(F)cc3)[nH]c3c(F)cc(F)cc32)C1
Target: G1 APOL1 (Homo sapiens, UniProt O14791, I384M/S342G)
Measurement: < 6.00
--
Molecule: CCS(=O)(=O)NCC(=O)N[C@H]1C[C@H](c2c(-c3ccc(F)cc3)[nH]c3c(F)cc(F)cc32)C1
Target: G1 APOL1 (Homo sapiens, UniProt O14791, I384M/S342G)
Measurement: < 6.00
--
Molecule: O=C(NC[C@H]1C[C@H](c2c(-c3ccc(F)cc3)[nH]c3c(F)cc(F)cc32)C1)[C@@H]1C[C@H](O)CN1
Target: G1 APOL1 (Homo sapiens, UniProt O14791, I384M/S342G)
Measurement: < 6.00
--
Molecule: O=C(N[C@H]1C[C@H](c2c(-c3ccc(F)cc3)[nH]c3c(F)cc(F)cc32)C1)C(O)CO (some centres unmarked)
Target: G1 APOL1 (Homo sapiens, UniProt O14791, I384M/S342G)
Measurement: 6.00 to 6.60
--
Molecule: NC1CC2(C1)CC(c1c(-c3ccc(F)cc3)[nH]c3c(F)cc(F)cc13)C2 (centres unmarked)
Target: G1 APOL1 (Homo sapiens, UniProt O14791, I384M/S342G)
Measurement: < 6.00
--
Molecule: O=C(N1CC(Cc2c(-c3ccc(F)cc3)[nH]c3c(F)cc(F)cc23)C1)C1(CO)CC1 [Compound 437, (Trifluoroacetate salt)]
Target: G1 APOL1 (Homo sapiens, UniProt O14791, I384M/S342G)
Measurement: 6.00 to 6.60
--
Molecule: C[C@@H](N)C(=O)NC[C@H]1C[C@H](c2c(-c3ccc(F)cc3)[nH]c3c(F)cc(F)cc32)C1
Target: G1 APOL1 (Homo sapiens, UniProt O14791, I384M/S342G)
Measurement: < 6.00
--
Molecule: O=C(C1CC1)N1CCC(Cc2c(-c3ccc(F)cc3)[nH]c3c(F)cc(F)cc23)C1 (centres unmarked)
Target: G1 APOL1 (Homo sapiens, UniProt O14791, I384M/S342G)
Measurement: < 6.00
--
Molecule: CN(C)C(=O)CCC(=O)NC[C@H]1C[C@@H](c2c(-c3ccc(F)cc3)[nH]c3c(F)cc(F)cc32)C1
Target: G1 APOL1 (Homo sapiens, UniProt O14791, I384M/S342G)
Measurement: < 6.00
--
Molecule: O=C(NC[C@H]1C[C@H](c2c(-c3ccc(F)cc3)[nH]c3c(F)cc(F)cc32)C1)c1ccncn1
Target: G1 APOL1 (Homo sapiens, UniProt O14791, I384M/S342G)
Measurement: < 6.00
--
Molecule: O=C(CC1CC(F)(F)C1)NC[C@H]1C[C@@H](c2c(-c3ccc(F)cc3)[nH]c3c(F)cc(F)cc32)C1
Target: G1 APOL1 (Homo sapiens, UniProt O14791, I384M/S342G)
Measurement: < 6.00
--
Molecule: CN1CCCC(CC(=O)N[C@H]2C[C@H](c3c(-c4ccc(F)cc4)[nH]c4c(F)cc(F)cc43)C2)C1 (some centres unmarked)
Target: G1 APOL1 (Homo sapiens, UniProt O14791, I384M/S342G)
Measurement: < 6.00
--
Molecule: NS(=O)(=O)CCC(=O)N[C@H]1C[C@@H](c2c(-c3ccc(F)cc3)[nH]c3c(F)cc(F)cc32)C1
Target: G1 APOL1 (Homo sapiens, UniProt O14791, I384M/S342G)
Measurement: < 6.00
--
Molecule: O=S(=O)(NCCO)NC[C@H]1C[C@H](c2c(-c3ccc(F)cc3)[nH]c3c(F)cc(F)cc32)C1
Target: G1 APOL1 (Homo sapiens, UniProt O14791, I384M/S342G)
Measurement: > 6.60

----------
IC50 for assorted compounds
# Target: G1 APOL1 (Homo sapiens, UniProt O14791, I384M/S342G)
# Construct: expressed in transfected cells
# Protocol notes: Acute APOL1 Thallium Assay with inducible stable clones of HEK 293 cells
# Format: cell-based
# Test conditions: HEK 293 T-Rex inducible stable clone expressing G1 APOL1; read-out: Thallium Assay (IC50)

Compound: O=C(CO)NC[C@H]1C[C@H](c2c(-c3ccc(F)cc3)[nH]c3c(F)cc(F)cc32)C1 [Compound 203]
Target: G1 APOL1 (Homo sapiens, UniProt O14791, I384M/S342G)
IC50: < 0.25 µM
//
Compound: O=C(Cc1ccncn1)NC[C@H]1C[C@H](c2c(-c3ccc(F)cc3)[nH]c3c(F)cc(F)cc32)C1 [Compound 251]
Target: G1 APOL1 (Homo sapiens, UniProt O14791, I384M/S342G)
IC50: > 1 µM
//
Compound: O=C1c2ccccc2C(=O)N1CCS(=O)(=O)NC[C@H]1C[C@H](c2c(-c3ccc(F)cc3)[nH]c3c(F)cc(F)cc32)C1 [Compound 420]
Target: G1 APOL1 (Homo sapiens, UniProt O14791, I384M/S342G)
IC50: > 1 µM
//
Compound: O=C(NC[C@H]1C[C@@H](c2c(-c3ccc(F)cc3)[nH]c3c(F)cc(F)cc32)C1)C1(O)CC1 [Compound 234]
Target: G1 APOL1 (Homo sapiens, UniProt O14791, I384M/S342G)
IC50: > 1 µM
//
Compound: CNCC(=O)N1CC(Cc2c(-c3ccc(F)cc3)[nH]c3c(F)cc(F)cc23)C1 [Compound 440]
Target: G1 APOL1 (Homo sapiens, UniProt O14791, I384M/S342G)
IC50: 0.25 to 1 µM
//
Compound: O=C(NC[C@H]1C[C@@H](c2c(-c3ccc(F)cc3)[nH]c3c(F)cc(F)cc32)C1)c1cn[nH]c1 [Compound 317]
Target: G1 APOL1 (Homo sapiens, UniProt O14791, I384M/S342G)
IC50: > 1 µM
//
Compound: O=C(CN1CCCC1)N[C@H]1C[C@H](c2c(-c3ccc(F)cc3)[nH]c3c(F)cc(F)cc32)C1 [Compound 112]
Target: G1 APOL1 (Homo sapiens, UniProt O14791, I384M/S342G)
IC50: > 1 µM
